target: COP9 signalosome complex subunit 5 (Homo sapiens); assay: CSN5 deneddylase inhibitors on cullin-RING ligase – biochemical, fluorescence polarization, uHTS, primary screen (AID 651999); details: Purified CSN, SCF-Nedd8-OG deneddylation, at 12.5 µM, stronger effect = higher value;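 also: 0% = enzyme with substrate and 100% = substrate without enzyme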
Hit rate of the full screen: of about 360,000 compounds, about 1,400 (0.39%) were called active. This is one part of a sample in which actives are shown more often than they occur.
measurement kind: inhibition (%)
Return type: number; implicit unit %.

Solved entries:
Please look up its inhibition: "Cc1cccc(-n2c(O)c(/C=N/N3CCOCC3)c(=O)[nH]c2=S)c1"
-0.17

Consider the compound CCNc1nc2[nH]c(=O)c3c(c2s1)OC(N)=C(C#N)C3c1cccs1 (centres undefined) and give its measured inhibition.
7.11

Entry C=CC12CN(C)[C@@H]3C4CO[C@H](C[C@H]41)[C@]1(C(=O)Nc4ccccc41)[C@@H]32 (some centres undefined) : reported inhibition = ?
6.32

Further cases:
Sample "O=C1N=c2ccccc2=C/C1=C\c1c(O)[nH]c(=S)[nH]c1=O" — what was its inhibition?
3.94

Param item = "COc1ccccc1N=Nc1c(O)[nH]c(=S)[nH]c1=O" ; retrieve measured inhibition.
64.6

Requested read-out: inhibition. Entry: "COc1ccc(N2C(=O)/C(=C/c3ccco3)C(=O)NC2=S)cc1"
39.6

Any idea what its inhibition is? The compound is "O=C1CC(=O)N(Cc2ccccc2)C(=O)N1CCCCCCN1C(=O)CC(=O)N(Cc2ccccc2)C1=O"
81.1

Which inhibition is listed for "CCOCCc1c(O)[nH]c(=S)[nH]c1=O" ?
-1.36

Returns the measured inhibition for the input compound. Input: "CC(C)(C)c1ccc(CN2C(=O)CN=C(c3ccccc3)c3ccccc32)cc1"
-0.66

Ref: PubChem BioAssay AID651999
